target: His-Tagged rhFc(gamma) receptor I (recombinant human Fc(gamma)R-I; Acro Biosystems, catalog# FCA-H52H1) (human); test: ELISA, fusion protein coated at 10 ug/mL, His-tagged rhFc(gamma)RI in solution, anti-His-HRP
Sequence (P12314 16-292): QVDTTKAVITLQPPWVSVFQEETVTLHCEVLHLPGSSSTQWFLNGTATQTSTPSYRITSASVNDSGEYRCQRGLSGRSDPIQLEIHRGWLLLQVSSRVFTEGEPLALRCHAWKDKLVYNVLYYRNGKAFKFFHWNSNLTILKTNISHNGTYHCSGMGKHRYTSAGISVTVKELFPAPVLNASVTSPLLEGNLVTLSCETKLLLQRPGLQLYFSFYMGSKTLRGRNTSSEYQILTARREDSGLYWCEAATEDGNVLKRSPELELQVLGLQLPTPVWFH
measuredMetric: OD450 at 222 ng/ml Fc(gamma) RI (OD450)
Enter your answer as a number in OD450; do not include the unit.

Look over these answered cases.
PD-L1 analog-Fc fusion protein of SEQ ID NO: 21 (Fc fusion) LIGYGGADYKRITLKVHAPYRNISQRISVDPVTSGGGGQGGGSGGQGGGGGDCPKCPAPEMLGGPSVFIFPPKPKDTLLIARTPEVTCVVVDLDPEDPEVQISWFVDGKQMQTAKTQPREEQFNGTYRVVSVLPIGHQDWLKGKQFTCKVNNKALPSPIERTISKARGQAHQPSVYVLPPSREELSKNTVSLTCLIKDFFPPDIDVEWQSNGQQEPESKYRTTPPQLDEDGSYFLYSKLSVDKSRWQRGDTFICAVMHEALHNHYTQESLSHSPG; 2.05
PD-L1 analog-Fc fusion protein of SEQ ID NO: 24 (Fc fusion) LIGYGGADYKRITLKVHAPYRNISQRISVDPVTSEHELMCQAEGYPEAEVIWTSSDHRVLSGKTTITNSNREEKLFNVTSTLNINATANEIFYCTFQRSGPEENNTAELVIPERLPVPASERTHFMILGPFGGGGQGGGSGGQGGGGGDCPKCPAPEMLGGPSVFIFPPKPKDTLLIARTPEVTCVVVDLDPEDPEVQISWFVDGKQMQTAKTQPREEQFNGTYRVVSVLPIGHQDWLKGKQFTCKVNNKALPSPIERTISKARGQAHQPSVYVLPPSREELSKNTVSLTCLIKDFFPPDIDVEWQSNGQQEPESKYRTTPPQLDEDGSYFLYSKLSVDKSRWQRGDTFICAVMHEALHNHYTQESLSHSPG; 1.49
PD-L1 analog-Fc fusion protein of SEQ ID NO: 20 (Fc fusion) FTITVSKDLYVVEYGGNVTMECKFPVEKQLNLFALIVYWEMEDKKIIQFVNGKEDLKVQHSSYSQRAQLLKDQLFLGKAALQITDVRLQDAGVYRCLIGYGGADYKRITLKVHAPYRNISQRISVDPVTSGGGGQGGGSGGQGGGGGDCPKCPAPEMLGGPSVFIFPPKPKDTLLIARTPEVTCVVVDLDPEDPEVQISWFVDGKQMQTAKTQPREEQFNGTYRVVSVLPIGHQDWLKGKQFTCKVNNKALPSPIERTISKARGQAHQPSVYVLPPSREELSKNTVSLTCLIKDFFPPDIDVEWQSNGQQEPESKYRTTPPQLDEDGSYFLYSKLSVDKSRWQRGDTFICAVMHEALHNHYTQESLSHSPG; 1.97

Turning now to a further binder:
Which value of OD450 at 222 ng/ml Fc(gamma) RI has been reported for PD-L1 analog-Fc fusion protein of SEQ ID NO: 22 (Fc fusion) FTITVSKDLYVVEYGGNVTMECKFPVEKQLNLFALIVYWEMEDKKIIQFVNGKEDLKVQHSSYSQRAQLLKDQLFLGKAALQITDVRLQDAGVYRCLIGYGGADYKRITLKVHAPYRNISQRISVDPVTSQGGGSGGQDCPKCPAPEMLGGPSVFIFPPKPKDTLLIARTPEVTCVVVDLDPEDPEVQISWFVDGKQMQTAKTQPREEQFNGTYRVVSVLPIGHQDWLKGKQFTCKVNNKALPSPIERTISKARGQAHQPSVYVLPPSREELSKNTVSLTCLIKDFFPPDIDVEWQSNGQQEPESKYRTTPPQLDEDGSYFLYSKLSVDKSRWQRGDTFICAVMHEALHNHYTQESLSHSPG in the records?
1.91

From: patent US20260035433A1
